Test system: LOX IMVI melanoma
measurement.notes: NCI-60 one-dose screen, 48 h
measurement.context: 10 µM unless noted
The panel holds about 83,000 compounds, 20% with a hit somewhere; the sample as a whole holds those more often. The source made the active and inactive calls. Rule for the calls: active = growth percent below 10; inactive = the rest.
Pick from TRUE (active), FALSE (inactive) when you respond.

>>> assigned_label("Nc1n[nH]c2ccc([C@@H]3Nc4cc5[nH]ncc5cc4[C@H]4C5CCC(C5)[C@@H]34)cc12 (stereo not given in full)")
"FALSE"

## Task Tell me the recorded outcome of this test for CC(/C=C1\SC(=S)N(CC(=O)NC(Cc2c[nH]c3ccccc23)C(=O)O)C1=O)=C\c1ccccc1 (stereo not given) .
## Result FALSE

## Task Tell me the recorded outcome of this test for N#Cc1nc2c(S(=O)(=O)c3ccccc3)c(N)n(Cc3cccnc3)c2nc1C#N .
## Result FALSE

## Task Tell me the recorded outcome of this test for Cc1ccc2[nH]c(-c3ccc(S(C)(=O)=O)cc3)c(/C=N/N=C(N)N)c2c1 .
## Result FALSE

## Task Tell me the recorded outcome of this test for Nc1nc(C(=O)N/N=C/c2ccc(N3CCOCC3)cc2)nn1-c1ccc(S(N)(=O)=O)cc1 .
## Result FALSE

## Task Tell me the recorded outcome of this test for CC(=O)c1cc(-c2ccccc2N)n(-c2ccc3c(c2)OCO3)c1C .
## Result FALSE

## Task Tell me the recorded outcome of this test for COc1ccc(Nc2ncc(C(N)=O)c(NCCCNC(=O)C3CCC3)n2)cc1 .
## Result FALSE
